Experiment description: physchem
Protocol conditions: pH 6.7, Solubility Conc.
Description: From a stock solution in vehicle, either H2O or 10 mM phosphate, containing 1 mg (as weighed) compound per ml, 8-11 aliquots are withdrawn and pH-adjusted individually with HCl/NaOH, to cover the whole pH range.
Positions of bridges follow the written chain, without caps; N, C: chain ends. Non-standard residues stand in square brackets, D forms with d. Residues, ends and D or L forms follow the SMILES beside them. Groups on a side chain read outwards from the residue. *: point of attachment. Lys(CH2CO2H)2 = N[C@@H](CCCCN(CC(=O)O)CC(=O)O)C(=O)O; C17 diacid = O=C(O)CCCCCCCCCCCCCCCC(=O)*; C16 diacid = O=C(O)CCCCCCCCCCCCCCC(=O)*; Orn = NCCC[C@H](N)C(=O)O; AEEA = NCCOCCOCC(=O)O
Each item that follows carries a reported solubility.
Write the quantity with the unit trailing the number.

Compound	Result
CC(=O)N[C@H]1CCCCNC(=O)C[C@@H](C(=O)N2CCC[C@H]2C(=O)N2CCC[C@H]2C(=O)N[C@@H](Cc2c[nH]cn2)C(=O)N[C@@H](CCC(=O)O)C(=O)N[C@@H](CCCCN(CC(=O)O)CC(=O)O)C(=O)N[C@@H](CCCCNC(=O)COCCOCCNC(=O)CCCCCCCCCCCCCCCC(=O)O)C(N)=O)NC(=O)[C@H](Cc2c[nH]c3ccccc23)NC(=O)[C@H](CCCNC(=N)N)NC(=O)[C@@H](Cc2ccccc2)NC(=O)[C@H](Cc2c[nH]cn2)NC1=O [Example 44] (Ac-KH[dF]RWDPPHE[Lys(CH2CO2H)2]K([AEEA-C17 diacid])-NH2; lactam 1-6)	364 µM

Okay, next one:
Ask: Would you kindly share the measured solubility for CC(=O)N[C@H]1CCCNC(=O)C[C@@H](C(=O)N2CCC[C@H]2C(=O)N2CCC[C@H]2C(=O)N[C@@H](Cc2c[nH]cn2)C(=O)N[C@@H](CCC(=O)O)C(=O)N[C@@H](CCCCN(CC(=O)O)CC(=O)O)C(=O)N[C@@H](CCCCNC(=O)COCCOCCNC(=O)CCCCCCCCCCCCCCC(=O)O)C(N)=O)NC(=O)[C@H](Cc2c[nH]c3ccccc23)NC(=O)[C@H](CCCNC(=N)N)NC(=O)[C@@H](Cc2ccccc2)NC(=O)[C@H](Cc2c[nH]cn2)NC1=O [Example 51] (Ac-[Orn]H[dF]RWDPPHE[Lys(CH2CO2H)2]K([AEEA-C16 diacid])-NH2; lactam 1-6) ?
Result: 460 µM

====

Experiment description: physchem
Protocol conditions: pH 5.6, Solubility Conc.
Positions of bridges follow the written chain, without caps; N, C: chain ends. Non-standard residues stand in square brackets, D forms with d. Residues, ends and D or L forms follow the SMILES beside them. Groups on a side chain read outwards from the residue. *: point of attachment. Lys(CH2CO2H)2 = N[C@@H](CCCCN(CC(=O)O)CC(=O)O)C(=O)O; C16 diacid = O=C(O)CCCCCCCCCCCCCCC(=O)*; hCys = N[C@@H](CCS)C(=O)O; AEEA = NCCOCCOCC(=O)O
Quantity: solubility (µM)
Express your answer in µM, writing the number without its unit.

Ask: Would you kindly share the measured solubility for CC(=O)N[C@H]1CCSSC[C@@H](C(=O)N2CCC[C@H]2C(=O)N2CCC[C@H]2C(=O)N[C@@H](CO)C(=O)N[C@@H](CCC(=O)O)C(=O)N[C@@H](CCCCN(CC(=O)O)CC(=O)O)C(=O)N[C@@H](CCCCNC(=O)COCCOCCNC(=O)CCCCCCCCCCCCCCC(=O)O)C(N)=O)NC(=O)[C@H](Cc2c[nH]c3ccccc23)NC(=O)[C@H](CCCNC(=N)N)NC(=O)[C@@H](Cc2ccccc2)NC(=O)[C@H](Cc2c[nH]cn2)NC1=O [Example 70] (Ac-[hCys]H[dF]RWCPPSE[Lys(CH2CO2H)2]K([AEEA-C16 diacid])-NH2; disulfide 1-6) ?
Result: 142

====

Experiment description: physchem
Protocol conditions: pH 6.2, Solubility Conc.
Positions of bridges follow the written chain, without caps; N, C: chain ends. Non-standard residues stand in square brackets, D forms with d. Residues, ends and D or L forms follow the SMILES beside them. Groups on a side chain read outwards from the residue. *: point of attachment. Lys(CH2CO2H)2 = N[C@@H](CCCCN(CC(=O)O)CC(=O)O)C(=O)O; C16 diacid = O=C(O)CCCCCCCCCCCCCCC(=O)*; hCys = N[C@@H](CCS)C(=O)O; AEEA = NCCOCCOCC(=O)O
Quantity: solubility (µM)
Express your answer in µM, writing the number without its unit.

Compound	solubility / µM
CC(=O)N[C@H]1CSSC[C@@H](C(=O)N2CCC[C@H]2C(=O)N2CCC[C@H]2C(=O)N[C@@H](CCCCN)C(=O)N[C@@H](CCC(=O)O)C(=O)N[C@@H](CCC(=O)O)C(=O)N[C@@H](CCCCNC(=O)COCCOCCNC(=O)CCCCCCCCCCCCCCC(=O)O)C(N)=O)NC(=O)CNC(=O)[C@H](Cc2c[nH]c3ccccc23)NC(=O)[C@H](CCCNC(=N)N)NC(=O)[C@@H](Cc2ccccc2)NC(=O)[C@H](Cc2c[nH]cn2)NC(=O)[C@H](CCC(=O)O)NC1=O [Example 68] (Ac-CEH[dF]RWGCPPKEEK([AEEA-C16 diacid])-NH2; disulfide 1-8)	164

Okay, next one:
Ask: Would you kindly share the measured solubility for CC(=O)N[C@H]1CCSSC[C@@H](C(=O)N[C@@H](CO)C(=O)N2CCC[C@H]2C(=O)N[C@@H](CCCCN)C(=O)N[C@@H](CCC(=O)O)C(=O)N[C@@H](CCCCN(CC(=O)O)CC(=O)O)C(=O)N[C@@H](CCCCNC(=O)COCCOCCNC(=O)CCCCCCCCCCCCCCC(=O)O)C(N)=O)NC(=O)[C@H](Cc2c[nH]c3ccccc23)NC(=O)[C@H](CCCNC(=N)N)NC(=O)[C@@H](Cc2ccccc2)NC(=O)[C@H](Cc2c[nH]cn2)NC1=O [Example 60] (Ac-[hCys]H[dF]RWCSPKE[Lys(CH2CO2H)2]K([AEEA-C16 diacid])-NH2; disulfide 1-6) ?
Result: 171

====

Experiment description: physchem
Protocol conditions: pH 8, Solubility Conc.
Experimental: From a stock solution in vehicle, either H2O or 10 mM phosphate, containing 1 mg (as weighed) compound per ml, 8-11 aliquots are withdrawn and pH-adjusted individually with HCl/NaOH, to cover the whole pH range.
Positions of bridges follow the written chain, without caps; N, C: chain ends. Non-standard residues stand in square brackets, D forms with d. Residues, ends and D or L forms follow the SMILES beside them. Groups on a side chain read outwards from the residue. *: point of attachment. Lys(CH2CO2H)2 = N[C@@H](CCCCN(CC(=O)O)CC(=O)O)C(=O)O; C17 diacid = O=C(O)CCCCCCCCCCCCCCCC(=O)*; C16 diacid = O=C(O)CCCCCCCCCCCCCCC(=O)*; hCys = N[C@@H](CCS)C(=O)O; AEEA = NCCOCCOCC(=O)O
The label depends only on solubility: YES if it is at least 400 µM, NO if it is smaller.

Look over these answered cases.
Compound	Classification
CC(=O)N[C@H]1CCSSC[C@@H](C(=O)N2CCC[C@H]2C(=O)N2CCC[C@H]2C(=O)N[C@@H](CO)C(=O)N[C@@H](CCC(=O)O)C(=O)N[C@@H](CCCCN(CC(=O)O)CC(=O)O)C(=O)N[C@@H](CCCCNC(=O)COCCOCCNC(=O)CCCCCCCCCCCCCCC(=O)O)C(N)=O)NC(=O)[C@H](Cc2c[nH]c3ccccc23)NC(=O)[C@H](CCCNC(=N)N)NC(=O)[C@@H](Cc2ccccc2)NC(=O)[C@H](Cc2c[nH]cn2)NC1=O [Example 70] (Ac-[hCys]H[dF]RWCPPSE[Lys(CH2CO2H)2]K([AEEA-C16 diacid])-NH2; disulfide 1-6)	YES
CC(=O)N[C@H]1CCCCNC(=O)CC[C@@H](C(=O)N2CCC[C@H]2C(=O)N2CCC[C@H]2C(=O)N[C@@H](Cc2c[nH]cn2)C(=O)N[C@@H](CCC(=O)O)C(=O)N[C@@H](CCCCN(CC(=O)O)CC(=O)O)C(=O)N[C@@H](CCCCNC(=O)COCCOCCNC(=O)CCCCCCCCCCCCCCCC(=O)O)C(N)=O)NC(=O)[C@H](Cc2c[nH]c3ccccc23)NC(=O)[C@H](CCCNC(=N)N)NC(=O)[C@@H](Cc2ccccc2)NC(=O)[C@H](Cc2c[nH]cn2)NC1=O [Example 7] (Ac-KH[dF]RWEPPHE[Lys(CH2CO2H)2]K([AEEA-C17 diacid])-NH2; lactam 1-6)	YES

Attention now turns to another entry.
Ask: Can CC(=O)N[C@H]1CSSC[C@@H](C(=O)N2CCC[C@H]2C(=O)N2CCC[C@H]2C(=O)N[C@@H](CCCCN)C(=O)N[C@@H](CCC(=O)O)C(=O)N[C@@H](CCC(=O)O)C(=O)N[C@@H](CCCCNC(=O)COCCOCCNC(=O)CCCCCCCCCCCCCCC(=O)O)C(N)=O)NC(=O)CNC(=O)[C@H](Cc2c[nH]c3ccccc23)NC(=O)[C@H](CCCNC(=N)N)NC(=O)[C@@H](Cc2ccccc2)NC(=O)[C@H](Cc2c[nH]cn2)NC(=O)[C@H](CCC(=O)O)NC1=O [Example 68] (Ac-CEH[dF]RWGCPPKEEK([AEEA-C16 diacid])-NH2; disulfide 1-8) be said to have solubility at or above 400 µM?
Result: NO
